Below: a set of entries, each annotated with reported abundance fitness.
B1: POU domain, class 3, transcription factor 2, residues 356 to 411; numbered along this chain, P20265 (parent)
chain: KKRTSIEVSVKGALESHFLKCPKPSAQEITSLADSLQLEKEVVRVWFCNRRQKEKR

# Variants of: B1
# assay-method-text: abundance fitness (aPCA) (normalised: wild type 0, dead -1); higher = more abundant; growth selection in yeast, the domain comes from the species named
# study-conditions: Homo sapiens
observed-property: abundance fitness

INSERT INTO results (variant_designation, observed_property, measured_number) VALUES
  ('K55P', 'abundance fitness', -0.396),
  ('E54N', 'abundance fitness', -0.407),
  ('S16W', 'abundance fitness', -0.399);
